- TESTED SYSTEM: NAD(P)H dehydrogenase [quinone] 1 (Homo sapiens)
- ASSAY METHOD TEXT: NADH oxidation is used as a measure metabolism since 1 mol of NADH is oxidized for each mole of compound that is reduced
- Assay type: functional
MEASURED ENDPOINT: Metabolism (µM/min/mg)

Example results:
# COMPOUND, Metabolism (µM/min/mg)
data = [
    ("CCCn1c(C)c(C(=O)OCC)c2c1C(=O)C(C)=C(OC)C2=O", 18.6),
    ("CCOC(=O)c1c2c(n(-c3ccccc3)c1C)C(=O)C(C)=C(OC)C2=O", 7.9),
    ("COC1=CC(=O)c2c(c(C(C)O)c(C)n2C)C1=O (stereo not given)", 10.4),
    ("CN1CCN(C2=CC(=O)c3c(c(CO)c(-c4ccccc4)n3C)C2=O)CC1", 0.15),
    ("COC1=CC(=O)c2c(c(CO)c(-c3ccc4ccccc4c3)n2C)C1=O", 4),
    ("COC1=CC(=O)c2[nH]c(C)c(C(C)=O)c2C1=O", 29.8),
    ("CCCn1c(C)c(C(=O)OCC)c2c1C(=O)C=C(OC)C2=O", 77.6),
    ("CCOC(=O)c1c2c(n(-c3ccccc3)c1C)C(=O)C=C(OC)C2=O", 16.4),
    ("COC1=CC(=O)c2c(c(COC(=O)Cc3ccc(-c4ccccc4)cc3)c(C)n2C)C1=O", 0.09),
    ("CCOC(=S)SCc1c2c(n(C)c1C)C(=O)C=C(OC)C2=O", 1.1),
]

a: COC1=C(C)C(=O)c2c(c(CO)c(C)n2CCN2CCOCC2)C1=O
b: CCOC(=O)c1c2c(n(CCN3CCOCC3)c1C)C(=O)C(C)=C(OC)C2=O
c: CCCn1c(C)c(CO)c2c1C(=O)C=C(OC)C2=O
d: COC1=CC(=O)c2c(c(COc3ccc([N+](=O)[O-])cc3)cn2C)C1=O
e: COC1=CC(=O)c2c(c(COc3ccc([N+](=O)[O-])cc3F)c(C)n2C)C1=O
Q: Your job: order these 5 records by Metabolism, ascending. Returns: the labels listed in the requested order.
Result: e, d, c, a, b
(e: 0.05 µM/min/mg, d: 0.29 µM/min/mg, c: 1.3 µM/min/mg, a: 7.6 µM/min/mg, b: 39.4 µM/min/mg)

1: CCc1c(C(=O)OC)c2c(n1Cc1ccccc1)C(=O)C=C(OC)C2=O
2: CCOC(=O)c1c2c(n(C3CC3)c1C)C(=O)C=C(OC)C2=O
3: COC1=CC(=O)c2c(c(COc3ccc(NC(C)=O)cc3)c(C)n2C)C1=O
Q: Arrange these compounds by their Metabolism, starting with the largest number. Returns: the labels listed in the requested order.
Result: 2, 1, 3
(2: 36.6 µM/min/mg, 1: 9.3 µM/min/mg, 3: 0.38 µM/min/mg)

* * *

- TESTED SYSTEM: NAD(P)H dehydrogenase [quinone] 1 (Homo sapiens)
- ASSAY METHOD TEXT: Ability to inactivate Recombinant human NQO1
- Assay type: functional
- Set-up: concentration or dose not given beside the values
MEASURED ENDPOINT: Enzyme activity (%)

# SMILES CODE, MEASURE UNIT, Enzyme activity
records = [
    ("COC1=CC(=O)c2c(c(COc3ccc([N+](=O)[O-])cc3F)c(C)n2C)C1=O", "%", 0),
    ("COC1=CC(=O)c2c(c(COC(=O)Cc3ccc(-c4ccccc4)cc3)c(C)n2C)C1=O", "%", 0),
]

a: COC1=CC(=O)c2c(c(CO)cn2C)C1=O
b: COC1=CC(=O)c2c(c(COC(C)=O)c(C)n2C)C1=O
c: COC1=CC(=O)c2c(c(COc3ccc([N+](=O)[O-])cc3)cn2C)C1=O
d: CCOC(=O)CNC(=O)OCc1c2c(n(C)c1C)C(=O)C=C(OC)C2=O
e: COC1=CC(=O)c2c(c(COc3cc([N+](=O)[O-])ccc3OC)c(C)n2C)C1=O
Q: Your job: order these 5 records by Enzyme activity, ascending. Returns: the labels listed in the requested order.
Result: b, e, d, c, a
(b: 0%, e: 13%, d: 19%, c: 52%, a: 96%)
